# target_desc: hSTING (Homo sapiens, UniProt Q86WV6, G230A/H232R/R293Q/R71H)
# Sequence (Q86WV6 whole entry R71H/G230A/H232R/R293Q): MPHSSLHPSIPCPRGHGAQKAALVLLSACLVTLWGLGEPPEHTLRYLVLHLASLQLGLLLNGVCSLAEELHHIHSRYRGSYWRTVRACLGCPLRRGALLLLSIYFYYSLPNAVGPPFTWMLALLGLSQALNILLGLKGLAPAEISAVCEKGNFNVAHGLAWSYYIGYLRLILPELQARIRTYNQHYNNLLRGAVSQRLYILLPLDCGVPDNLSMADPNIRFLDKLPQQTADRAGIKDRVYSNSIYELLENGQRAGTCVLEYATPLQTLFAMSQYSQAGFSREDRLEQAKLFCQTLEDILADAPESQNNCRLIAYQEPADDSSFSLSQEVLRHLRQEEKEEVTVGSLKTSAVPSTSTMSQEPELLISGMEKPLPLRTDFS
# method_notes: STING reporter assay: THP1-Dual KO-IFNAR2 cells stimulated with 2′3′cGAMP, luciferase reporter activity
# study_conditions: 15 μM 2′3′cGAMP transfected with Lipofectamine 2000, 24 h, luciferase reporter (QUANTI-Luc)
# Experimental: STING pathway activation by the compounds described herein was measured using THP1-Dual™ cells (KO-IFNAR2). […] 2 mL of solution A and 2 ml Solution B was mixed and incubated for 20 min at room temperature (RT). […] Luciferase reporter activity was then measured. EC50 values were calculated by using standard methods known in the art. […] Luciferase reporter activity was then measured. EC50 values were calculated by using standard methods known in the art.
reported_metric: EC50

1) O=C(Nc1c[nH]c2cc(F)c(F)cc12)c1cc(-c2ccccc2)[nH]n1 [Compound 175]    200 to 1000 nM
2) O=C(Nc1c[nH]c2cc(F)c(F)cc12)c1ncn(-c2ccccc2)n1 [Compound 110]    40 to 200 nM
3) O=C(Nc1c[nH]c2cc(F)c(F)cc12)c1cc(CC2CCN(CC(F)(F)F)CC2)on1 [Compound 152]    200 to 1000 nM
4) O=C(Nc1c[nH]c2cc(F)c(F)cc12)c1csc(Cc2ccccc2)n1 [Compound 112]    1000 to 5000 nM
5) Cc1cc(-n2cc(C(=O)Nc3c[nH]c4cc(F)c(F)cc34)nn2)cnc1OCC(F)(F)F [Compound 165]    200 to 1000 nM
6) COc1ccc2[nH]cc(NC(=O)c3cnn(Cc4ccc(C(F)(F)F)cc4)c3)c2n1 [Compound 118]    1000 to 5000 nM
7) Cc1cc(Cn2cc(C(=O)Nc3c[nH]c4ccc(Cl)cc34)cn2)cnc1OCC(F)(F)F [Compound 160]    40 to 200 nM
8) O=C(Nc1c[nH]c2ccccc12)c1ncc(-c2ccc(C(F)(F)F)cc2)[nH]1 [Compound 129]    200 to 1000 nM
9) O=C(Nc1c[nH]c2cc(F)c(F)cc12)c1cc(CCc2ccc(C(F)(F)F)cc2)no1 [Compound 150]    40 to 200 nM
10) CC(C)n1cc(-c2ccc3[nH]cc(NC(=O)c4ccn(Cc5ccc(C(F)(F)F)cc5)n4)c3c2)cn1 [Compound 133]    200 to 1000 nM
11) O=C(Nc1c[nH]c2cc(F)c(F)cc12)c1cc(Cc2ccc(C(F)(F)F)cc2)no1 [Compound 151]    200 to 1000 nM
12) O=C(Nc1c[nH]c2cc(F)c(F)cc12)c1cc(-c2cccnc2)[nH]n1 [Compound 119]    5000 to 100000 nM
13) O=C(Nc1c[nH]c2cc(F)c(F)cc12)c1cnn(CCOc2cccnc2)c1 [Compound 124]    5000 to 100000 nM
14) O=C(Nc1c[nH]c2cc(F)c(F)cc12)c1cn(Cc2ccc(C(F)(F)F)cc2)nn1 [Compound 105]    200 to 1000 nM
15) O=C(Nc1c[nH]c2cc(F)c(F)cc12)c1cn(-c2ccc(C(F)(F)F)cc2)nn1 [Compound 106]    200 to 1000 nM
16) O=C(Nc1c[nH]c2cc(F)c(F)cc12)c1cc(-c2ccccn2)on1 [Compound 109]    200 to 1000 nM
17) O=C(Nc1c[nH]c2cc(F)c(F)cc12)c1cc(-c2ccc(Cl)cc2)no1 [Compound 171]    200 to 1000 nM
18) O=C(Nc1c[nH]c2cc(F)c(Cl)cc12)c1cn(Cc2ccc(C(F)(F)F)cc2)nn1 [Compound 168]    200 to 1000 nM
19) O=C(Nc1c[nH]c2cc(F)c(F)cc12)c1cn(-c2ccnc(COCC(F)(F)F)c2)nn1 [Compound 156]    1000 to 5000 nM
20) CC(C)n1cc(-c2ccc3[nH]cc(NC(=O)c4cn(Cc5ccc(C(F)(F)F)cc5)cn4)c3c2)cn1 [Compound 138]    200 to 1000 nM
21) O=C(Nc1c[nH]c2cc(F)c(F)cc12)c1cc(Cc2ccc(C(F)(F)F)cc2)[nH]n1 [Compound 145]    200 to 1000 nM
22) O=C(Nc1c[nH]c2ccc(F)cc12)c1cnn(Cc2ccc(C(F)(F)F)cc2)c1 [Compound 115]    200 to 1000 nM
23) CC(C)n1cc(-c2cc(F)c3[nH]cc(NC(=O)c4cnn(Cc5ccc(C(F)(F)F)cc5)c4)c3c2)cn1 [Compound 146]    200 to 1000 nM
24) O=C(Nc1c[nH]c2cc(F)c(F)cc12)c1cnn(C2CCCCC2)c1 [Compound 116]    1000 to 5000 nM
25) O=C(Nc1c[nH]c2cnccc12)c1cnn(Cc2ccc(C(F)(F)F)cc2)c1 [Compound 144]    5000 to 100000 nM
26) O=C(Nc1c[nH]c2ccc(Cl)cc12)c1cn(-c2cnc(OCC(F)(F)F)c(F)c2)nn1 [Compound 159]    200 to 1000 nM
27) O=C(Nc1c[nH]c2ccc(Oc3ccccc3)cc12)c1cnn(Cc2ccc(C(F)(F)F)cc2)c1 [Compound 154]    40 to 200 nM
28) O=C(Nc1c[nH]c2cc(F)c(Cl)cc12)c1cc(Cc2ccc(C(F)(F)F)cc2)n(C(F)F)n1 [Compound 166]    200 to 1000 nM
29) O=C(Nc1c[nH]c2cc(F)c(F)cc12)c1cc(Cc2ccc(C(F)(F)F)cc2)on1 [Compound 153]    200 to 1000 nM
30) Cn1nc(C(=O)Nc2c[nH]c3cc(F)c(F)cc23)cc1-c1ccccc1 [Compound 172]    200 to 1000 nM
31) Cc1cc(Cn2cc(C(=O)Nc3c[nH]c4cc(F)c(F)cc34)cn2)cnc1OCC(F)(F)F [Compound 163]    40 to 200 nM
32) Cn1nc(C(=O)Nc2c[nH]c3cc(F)c(Cl)cc23)cc1Cc1ccc(C(F)(F)F)cc1 [Compound 162]    40 to 200 nM

The values you see were collected from patent US20230271941A1.
